Test: Steady state brain ECF pharmacokinetics by intracerebral microdialysis
Details: female, Sprague-Dawley, rat, brain ECF / unbound plasma, intraperitoneal, 4 mg/kg, Kpuu, range over single dose and steady state (Cmax and AUC0-12), female rats
measure-name: Kp uu

Query: Name the recorded Kp uu for N#Cc1ccc(C(c2ccc(C#N)cc2)n2cncn2)cc1 [letrozole] .
Result: 1.2 to 1.4

* * *

Assay: Single dose brain ECF pharmacokinetics by intracerebral microdialysis
Format: in vivo, Sprague-Dawley rats
Settings: Sprague-Dawley, rat, brain ECF (striatal microdialysate), ip; male rats, single dose 4 mg/kg i.p.
measure-name: Tmax (h)
Number only, in h; omit the unit.

Query: Returns the measured Tmax for the input compound. Input: `N#Cc1ccc(C(c2ccc(C#N)cc2)n2cncn2)cc1`
Result: 4.7
